- MEASURED TARGET: ALK5 (Homo sapiens (Human), UniProt P36897)
- Sequence (P36897 34-503, species assumed): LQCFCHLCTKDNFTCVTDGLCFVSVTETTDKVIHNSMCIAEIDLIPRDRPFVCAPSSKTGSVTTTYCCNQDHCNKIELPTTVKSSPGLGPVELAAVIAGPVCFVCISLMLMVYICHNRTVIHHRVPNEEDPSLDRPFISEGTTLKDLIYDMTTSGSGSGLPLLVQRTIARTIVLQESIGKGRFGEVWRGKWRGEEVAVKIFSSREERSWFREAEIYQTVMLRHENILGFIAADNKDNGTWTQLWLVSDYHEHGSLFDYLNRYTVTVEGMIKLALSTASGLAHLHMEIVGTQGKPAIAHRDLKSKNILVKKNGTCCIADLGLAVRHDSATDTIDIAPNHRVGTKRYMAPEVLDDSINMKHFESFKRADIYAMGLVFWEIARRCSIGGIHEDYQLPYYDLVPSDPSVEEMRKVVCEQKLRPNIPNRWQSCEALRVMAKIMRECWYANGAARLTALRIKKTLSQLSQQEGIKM
READOUT: IC50 (nM)
One number for each entry, in nM.

# input compound: CCc1cnn(-c2cccc(C)n2)c1-c1cc2cnccc2s1 [Compound 7] ; wanted: its IC50
4.33

---

- ASSAY OVERVIEW: Intrinsic clearance in human liver microsomes
- Type: in vitro ADME
- CONDITION INFO: pH 7.4, 0.1 μM test compound, 0.1 mg/mL protein, 1 mM NADPH
READOUT: CLint scaled at 0.1 μM
Be sure to follow the number with its unit.

# input molecule: Cc1cccc(-n2ncc(C)c2-c2cc3cnccc3s2)n1 ; wanted: its CLint scaled at 0.1 μM
199 mL/min/kg
